Value source: paper PMC10556424

# Tested on: HBV DNA in HBV-expressed HepG2.2.15 cells
# Method Description: In vitro anti-HBV activity in HepG2.2.15 cell line
# Type: cell-based
# Test Settings: Hepatitis B virus, HepG2.2.15, 144 h, read-out: % HBV DNA remaining

[
  {
    "Structure Smiles": "O=C(Nc1cc(F)c(F)c(F)c1)[C@H]1CCN(C(=O)c2ccc(-c3cncnc3)[nH]2)C1",
    "System Name": "HBV DNA in HBV-expressed HepG2.2.15 cells",
    "activity at 1 µM / %": 43
  },
  {
    "Structure Smiles": "Cc1ccc(C(=O)N2CC[C@H](C(=O)Nc3cc(F)c(F)c(F)c3)C2)[nH]1",
    "System Name": "HBV DNA in HBV-expressed HepG2.2.15 cells",
    "activity at 1 µM / %": 59
  },
  {
    "Structure Smiles": "O=C(Nc1cc(F)c(F)c(F)c1)[C@H]1CCN(C(=O)c2ccc(C3CC3)[nH]2)C1",
    "System Name": "HBV DNA in HBV-expressed HepG2.2.15 cells",
    "activity at 1 µM / %": 48
  },
  {
    "Structure Smiles": "O=C(Nc1cc(F)c(F)c(F)c1)[C@H]1CCN(C(=O)c2cc3cnccc3[nH]2)C1",
    "System Name": "HBV DNA in HBV-expressed HepG2.2.15 cells",
    "activity at 1 µM / %": 67
  },
  {
    "Structure Smiles": "O=C(Nc1cc(F)c(F)c(F)c1)[C@H]1CCN(C(=O)c2ccc(-c3ccccn3)[nH]2)C1",
    "System Name": "HBV DNA in HBV-expressed HepG2.2.15 cells",
    "activity at 1 µM / %": 77
  },
  {
    "Structure Smiles": "O=C(Nc1cc(F)c(F)c(F)c1)[C@H]1CCN(C(=O)c2ccc(-c3cccnc3)[nH]2)C1",
    "System Name": "HBV DNA in HBV-expressed HepG2.2.15 cells",
    "activity at 1 µM / %": 47
  },
  {
    "Structure Smiles": "O=C(Nc1cc(F)c(F)c(F)c1)[C@H]1CCN(C(=O)c2cc3ccccc3[nH]2)C1",
    "System Name": "HBV DNA in HBV-expressed HepG2.2.15 cells",
    "activity at 1 µM / %": 44
  },
  {
    "Structure Smiles": "O=C(Nc1cc(F)c(F)c(F)c1)[C@H]1CCN(C(=O)c2ccc(-c3ccncc3)[nH]2)C1",
    "System Name": "HBV DNA in HBV-expressed HepG2.2.15 cells",
    "activity at 1 µM / %": 28
  }
]
